Assay Summary: In vivo pharmacokinetics in dog
Set-up: species or system male Beagle dogs
Measurement Conditions: male, Beagle, plasma, PO 5 mg/kg, mean
Assay Endpoint: Cmax
Answers without a unit are incomplete; give the number and then its unit.

input: // fetch Cmax given entry Cc1c(C(=O)Nc2ccc3c(c2)B(O)OC3)nnn1-c1ccccn1
output: 1220 ng/mL

----------
Assay Summary: In vivo pharmacokinetics in dog
Parameters: species or system male Beagle dogs
Measurement Conditions: male, Beagle, plasma, PO 5 mg/kg, 0.5 h, mean
Procedure: DNDI-6148 was administrated intravenously at 1 mg/kg and orally at 5 mg/kg to male Beagle dogs. The formulation for the i.v. leg was 2% ethanol, 1.0 mol equiv NaOH, dextrose (5% solution) filtered, and adjusted to pH 7, and for the p.o. leg, the formulation was 2% ethanol, 1.0 mol equiv NaOH, and dextrose (5% solution). […] PK parameters were calculated using WinNonlin software (version 6.3).
Assay Endpoint: concentration at 0.5 h (ng/mL)
Numbers only here, please. The scale is ng/mL.

input: // fetch concentration at 0.5 h given entry Cc1c(C(=O)Nc2ccc3c(c2)B(O)OC3)nnn1-c1ccccn1
output: 881
